measuredOn: T1, CD138 on the surface of U266 cells (CD138+ human lymphoblastic myeloma cell line) (human, UniProt P18827 23-310)
T1 construct: whole, on cells; also called cell surface CD138; membrane CD138
T1 sequence (looked up): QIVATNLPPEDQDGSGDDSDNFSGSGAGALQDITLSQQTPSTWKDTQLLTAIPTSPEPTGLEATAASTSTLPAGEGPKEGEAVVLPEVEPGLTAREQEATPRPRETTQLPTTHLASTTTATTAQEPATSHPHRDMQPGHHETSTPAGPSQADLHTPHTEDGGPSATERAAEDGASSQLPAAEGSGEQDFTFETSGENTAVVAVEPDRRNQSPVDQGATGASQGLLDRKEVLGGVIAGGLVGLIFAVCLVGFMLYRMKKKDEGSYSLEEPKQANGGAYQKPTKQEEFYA
assayProtocol: flow cytometry on U266 cells at pH 6, MFI against antibody concentration (about 0.03-30 ug/mL)
reportedEndpoint: EC50 (read off the curve)

binder	valueObserved
Antibody 29-0 (antibody, V domains shown, also called mAb 29-0) VH: EVQLVQSGAEVKKPGASVKVSCKASGYSFSSYYMHWVRQAPGQGLEWMGTIYPGASTTNYNQKFQGRVTMTVDTSTRTAYMELSSLRSEDTAVYYCADFVYWGQGTTVTVSS VL: DIVMTQTPLSLSVTPGQPASISCKSSKSLLYKDGKTYLNWFLQKPGQSPQLLIYVVSTRASGVPDRFSGSGSGTDFTLKISRVEAEDVGVYYCQQLVEYPYTFGQGTKLEIK	~0.6 µg/mL

[Q] I'd like to know its EC50 (read off the curve). The binder in question is Antibody Ab137 (antibody, V domains shown) VH: QVQLVQSGAEVKKPGASVKVSCKASGYSFSSYYMHWVRQAPGQGLEWMGTIHPSDSTTNYNQKFQGRVTMTVDTSTRTAYMELSSLRSEDTAVYYCANFVYWGQGTTVTVSS VL: DIVMTQTPLSLSVTPGQPASISCKSSKSLLYKDGKTYLNWFLQKPGQSPQLLIDVVSTRASGVPDRFSGSGSGTDFTLKISRVEAEDVGVYYCQQLVEYPYTFGQGTKLEIK
[A] ~0.4 µg/mL

[Q] Next: Antibody Ab28 (antibody, V domains shown, also called Mab 28) VH: EVQLVQSGAEVKKPGASVKVSCKASGYSFSSYYMHWVRQAPGQGLEWMGTIYPGDSTTNYNQKFQGRVTMTVDTSTRTAYMELSSLRSEDTAVYYCADFVYWGQGTTVTVSS VL: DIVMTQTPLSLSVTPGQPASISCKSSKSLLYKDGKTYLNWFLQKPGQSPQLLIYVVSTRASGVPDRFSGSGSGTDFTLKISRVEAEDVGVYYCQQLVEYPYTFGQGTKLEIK
[A] ~0.5 µg/mL

[Q] Next: Antibody Ab43 (antibody, V domains shown) VH: EVQLVQSGAEVKKPGASVKVSCKASGYSFSSYYMHWVRQAPGQGLEWMGTIHPSDSTTNYNQKFQGRVTMTVDTSTRTAYMELSSLRSEDTAVYYCADFVYWGQGTTVTVSS VL: DIVMTQTPLSLSVTPGQPASISCKSSKSLLYKDGKTYLLWFLQKPGQSPQLLIYVVSTRASGVPDRFSGSGSGTDFTLKISRVEAEDVGVYYCQQLVEYPYTFGQGTKLEIK
[A] ~0.6 µg/mL
